# Target Or Test System: NLRP3 inflammasome (Homo sapiens, UniProt Q96P20)
# Sequence (Q96P20 whole entry): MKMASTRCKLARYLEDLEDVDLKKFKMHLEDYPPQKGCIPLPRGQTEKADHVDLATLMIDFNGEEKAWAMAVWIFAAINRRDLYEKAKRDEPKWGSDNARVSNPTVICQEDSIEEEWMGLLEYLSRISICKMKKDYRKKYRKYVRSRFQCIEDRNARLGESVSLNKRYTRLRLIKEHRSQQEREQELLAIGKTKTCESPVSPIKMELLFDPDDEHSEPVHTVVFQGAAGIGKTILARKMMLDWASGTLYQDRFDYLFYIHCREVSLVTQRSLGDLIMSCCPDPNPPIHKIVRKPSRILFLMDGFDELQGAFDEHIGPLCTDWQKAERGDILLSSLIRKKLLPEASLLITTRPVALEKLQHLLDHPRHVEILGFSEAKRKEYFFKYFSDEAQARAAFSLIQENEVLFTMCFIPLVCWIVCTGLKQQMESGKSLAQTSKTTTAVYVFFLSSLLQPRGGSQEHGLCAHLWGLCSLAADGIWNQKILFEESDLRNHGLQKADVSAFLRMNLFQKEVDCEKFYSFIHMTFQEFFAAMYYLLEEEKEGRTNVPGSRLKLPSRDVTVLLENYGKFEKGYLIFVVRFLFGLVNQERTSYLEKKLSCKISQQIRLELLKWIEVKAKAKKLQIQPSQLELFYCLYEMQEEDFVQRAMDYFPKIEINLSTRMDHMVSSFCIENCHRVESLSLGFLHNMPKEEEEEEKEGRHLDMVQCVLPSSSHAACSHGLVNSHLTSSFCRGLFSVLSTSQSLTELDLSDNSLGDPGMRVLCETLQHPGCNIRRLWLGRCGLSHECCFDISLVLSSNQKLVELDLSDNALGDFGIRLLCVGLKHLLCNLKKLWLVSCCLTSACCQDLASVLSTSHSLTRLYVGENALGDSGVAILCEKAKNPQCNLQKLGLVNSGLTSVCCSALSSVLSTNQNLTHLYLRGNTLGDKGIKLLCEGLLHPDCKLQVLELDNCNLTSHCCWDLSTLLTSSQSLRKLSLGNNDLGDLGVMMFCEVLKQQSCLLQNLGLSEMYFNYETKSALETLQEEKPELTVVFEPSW
# Method Summary: NLRP3 inflammasome activation assay in PBMCs, IL-1β release (ELISA / HTRF)
# Assay type: cell-based
# Parameters: were freshly isolated from human peripheral blood from healthy donors; StemCells Technologies; host or cells: primary human PBMCs, LPS-primed, nigericin-stimulated
# Reported Conditions: LPS primed, 10 μM nigericin, read-out: PBMC IL-1β IC50
pIC50: −log10 of the molar value.
Attribute Measured: pIC50

P = CNC1COc2c(S(N)(=O)=NC(=O)Nc3c4c(c(F)c5c3CCC5)CCC4)cnn2C1 (single isomer, unassigned) [Example 41]
Q = COC1COc2c(S(N)(=O)=NC(=O)Nc3c4c(c(F)c5c3CCC5)CCC4)cnn2C1 (single isomer, unassigned) [Example 32]
R = NS(=O)(=NC(=O)Nc1c2c(cc3c1CCC3)CCC2)c1cnn2c1OCCC2 (single isomer, unassigned) [Example 14]
Prompt: Lab note: arrange the 3 compounds above from lowest to highest pIC50. In plain terms: list the labels in the order you were asked to.
Response: P, R, Q
(P: 5.17, R: 5.72, Q: 7.89)

---

# Target Or Test System: UniProtKB Q96P20
# Method Summary: NLRP3 inflammasome activation assay in PBMCs, IL-1β release (ELISA / HTRF)
# Type: cell-based
# Set-up: were freshly isolated from human peripheral blood from healthy donors; StemCells Technologies; host or cells: primary human PBMCs, LPS-primed, nigericin-stimulated
# Reported Conditions: LPS primed, 10 uM nigericin, read-out: PBMC IL-1 β IC50
pIC50: −log10 of the molar value.
Reported values of pIC50 for individual entries

Worked examples, 4 compounds total:
{"Compound": "NS(=O)(=NC(=O)Nc1c2c(c(F)c3c1CCC3)CCC2)c1cnn2c1OCCCC2 (stereo not drawn)", "Val": "> 7.00"}
{"Compound": "CC(C)c1cc(F)cc(C(C)C)c1NC(=O)NS(=N)(=O)c1cnn2c1OCCC2 (stereo not drawn) [drawing 655]", "Val": "6.00 to 7.00"}
{"Compound": "NS(=O)(=NC(=O)Nc1c2c(cc3c1CCC3)CCC2)c1cnn2c1OCCC2 (stereo not drawn)", "Val": "> 7.00"}
{"Compound": "CN[C@@H]1COc2c(S(=N)(=O)NC(=O)Nc3c(C(C)C)cc(F)cc3C(C)C)cnn2C1 (single isomer, unassigned) [drawing 676]", "Val": "< 5.00"}

Now consider the entry below.
Prompt: I have this compound here, CC(C)c1cc(F)cc(C(C)C)c1NC(=O)NS(=N)(=O)c1cnn2c1OCCC2 (stereo not drawn) [drawing 656] , and I need its recorded pIC50.
Response: 6.00 to 7.00

---

Recorded IC50 by entry
# Tested on: Kupffer cells
# Method Summary: CTG (CellTiter-Glo) viability assay in Kupffer cells
# Assay type: cell-based
# Reported Conditions: human Kupffer cells
# Procedure: Human Kupffer cells (KCs), specialized liver macrophages residing in […], were obtained by gradient isolation from liver specimens harvested post-mortem by Samsara Sciences. […] Viability of compound treated cells was measured using CellTiter-Glo® assay (Promega, Madison, Wis.) that measures the ATP content of cells which is proportional to the number of live cells within a well. […]

{"Molecule": "CN[C@@H]1COc2c(S(=N)(=O)NC(=O)Nc3c4c(cc5c3CCC5)CCC4)cnn2C1 (stereo partly drawn) [drawing 674]", "Attribute Measured": "IC50", "Val": "< 0.1 µM"}
{"Molecule": "COC1COc2c(S(N)(=O)=NC(=O)Nc3c4c(cc5c3CCC5)CCC4)cnn2C1 (single isomer, unassigned)", "Attribute Measured": "IC50", "Val": "< 0.1 µM"}
{"Molecule": "NS(=O)(=NC(=O)Nc1c2c(cc3c1CCC3)CCC2)c1cnn2c1OCCC2 (racemic) [Example 1]", "Attribute Measured": "IC50", "Val": "0.103 µM"}
{"Molecule": "CNC1COc2c(S(N)(=O)=NC(=O)Nc3c4c(cc5c3CCC5)CCC4)cnn2C1 (single isomer, unassigned)", "Attribute Measured": "IC50", "Val": "0.021 µM"}
{"Molecule": "CO[C@@H]1COc2c(S(=N)(=O)NC(=O)Nc3c4c(cc5c3CCC5)CCC4)cnn2C1 (stereo partly drawn) [drawing 668]", "Attribute Measured": "IC50", "Val": "< 0.1 µM"}

API: the following record is the query input.
Prompt: So what's the measured IC50 for this one? NS(=O)(=NC(=O)Nc1c2c(cc3c1CCC3)CCC2)c1cnn2c1OCCC2 (stereo not drawn)
Response: 0.1 to 1 µM

---

molecules and their reported IC50
# System: PBMCs
# Method Summary: CTG (CellTiter-Glo) viability assay in PBMCs
# Type: cell-based
# Reported Conditions: Homo sapiens, PBMC, LPS and nigericin stimulated

// worked examples, IC50 included
{"Molecule": "CO[C@@H]1COc2c(S(N)(=O)=NC(=O)Nc3c(C(C)C)cc(F)cc3C(C)C)cnn2C1 (mixture of isomers) [Example 15]", "Attribute Measured": "IC50", "Val": "95 nM"}
{"Molecule": "CN[C@@H]1COc2c(S(=N)(=O)NC(=O)Nc3c4c(cc5c3CCC5)CCC4)cnn2C1 (some centres unmarked) [drawing 665]", "Attribute Measured": "IC50", "Val": "< 100 nM"}
{"Molecule": "CO[C@@H]1COc2c(S(=N)(=O)NC(=O)Nc3c4c(cc5c3CCC5)CCC4)cnn2C1 (some centres unmarked) [drawing 667]", "Attribute Measured": "IC50", "Val": "100 to 1000 nM"}

Prompt: Field request: IC50 | item: NS(=O)(=NC(=O)Nc1c2c(c(F)c3c1CCC3)CCC2)c1cnn2c1OCCCC2 (centres unmarked)
Response: > 10000 nM

Prompt: I'd like to know its IC50. The molecule in question is CN[C@@H]1COc2c(S(=N)(=O)NC(=O)Nc3c(C(C)C)cc(F)cc3C(C)C)cnn2C1 (some centres unmarked)
Response: 100 to 1000 nM

Prompt: Dear colleague, I am looking for the recorded IC50 of the following molecule: CC(C)c1cc(F)cc(C(C)C)c1NC(=O)N=S(N)(=O)c1cnn2c1OCCC2 (racemic) [Example 3]
Response: 176 nM

Prompt: Endpoint output: IC50 of CN[C@@H]1COc2c(S(=N)(=O)NC(=O)Nc3c(C(C)C)cc(F)cc3C(C)C)cnn2C1 (single isomer, unassigned) [drawing 675] . Value?
Response: > 10000 nM

Prompt: Find the recorded IC50 belonging to Cn1ccc(S(=N)(=O)NC(=O)Nc2c3c(cc4c2CCC4)CCC3)n1 (centres unmarked) and report it.
Response: < 100 nM

Prompt: Fill in: IC50 of NS(=O)(=NC(=O)Nc1c2c(c(F)c3c1CCC3)CCC2)c1cnn2c1OCCC2 (centres unmarked) is ___
Response: < 100 nM

Prompt: Please look up its IC50: CC1(C)COc2c(S(N)(=O)=NC(=O)Nc3c4c(cc5c3CCC5)CCC4)cnn2C1 (centres unmarked)
Response: < 100 nM

Prompt: I am curious: what IC50 value has been reported for CN(C)[C@@H]1COc2c(S(=N)(=O)NC(=O)Nc3c4c(cc5c3CCC5)CCC4)cnn2C1 (some centres unmarked) [drawing 681] ?
Response: < 100 nM

Prompt: May I ask what IC50 has been recorded for Cn1cc(S(N)(=O)=NC(=O)Nc2c3c(cc4c2CCC4)CCC3)cn1 (centres unmarked) ?
Response: 100 to 1000 nM

Prompt: Return reported IC50; argument: CO[C@@H]1COc2c(S(N)(=O)=NC(=O)Nc3c4c(c(F)c5c3CCC5)CCC4)cnn2C1 (mixture of isomers) [Example 18]
Response: 0.1 nM

Prompt: Look up IC50: N=S(=O)(NC(=O)Nc1c2c(cc3c1CCC3)CCC2)c1cnn2c1OC[C@@H](NCCF)C2 (some centres unmarked)
Response: 100 to 1000 nM

Prompt: Would you kindly share the measured IC50 for NS(=O)(=NC(=O)Nc1c2c(cc3c1CCC3)CCC2)c1cnn2c1OCC(NCCF)C2 (single isomer, unassigned) [Example 35] ?
Response: 250 nM

Prompt: // IC50 lookup, key: NS(=O)(=NC(=O)Nc1c2c(cc3c1CCC3)CCC2)c1cnn(CC2CC2)c1 (racemic) [Example 10]
Response: 360 nM

Prompt: For the molecule NS(=O)(=NC(=O)Nc1c2c(c(C(=O)O)c3c1CCC3)CCC2)c1cnn2c1OCCC2 (centres unmarked) , what IC50 is on record?
Response: > 10000 nM

---

# Target Or Test System: UniProtKB Q96P20
# Method Summary: THP-1 ASC-GFP speck assay
# Type: cell-based
# Design: host or cells: THP-1 ASC-GFP cells, PMA-differentiated, LPS-primed, nigericin-stimulated
# Reported Conditions: THP-1 ASC-GFP cells, PMA differentiated, LPS primed, 10 μM nigericin; read-out: THP1 ASC Speck IC50
pIC50: −log10 of the molar value.
Attribute Measured: pIC50

Reference set (3 entries):
{"Compound": "NS(=O)(=NC(=O)Nc1c2c(cc3c1CCC3)CCC2)c1cnn2c1OCC(NCCF)C2 (single isomer, unassigned)", "Target Or Test System": "UniProtKB Q96P20", "pIC50": 7.18}
{"Compound": "CC1CCc2cc3c(c(NC(=O)N=S(N)(=O)c4cnn5c4OCCC5)c21)CCC3 (single isomer, unassigned) [Example 127]", "Target Or Test System": "UniProtKB Q96P20", "pIC50": 5.48}
{"Compound": "COC1CCn2ncc(S(N)(=O)=NC(=O)Nc3c4c(cc5c3CCC5)CCC4)c2OC1 (single isomer, unassigned) [Example 87]", "Target Or Test System": "UniProtKB Q96P20", "pIC50": 5.54}

a = CC1CCc2cc3c(c(NC(=O)N=S(N)(=O)c4cnn5c4OCC5)c21)CCC3 (single isomer, unassigned) [Example 143]
b = CNC1COc2c(S(N)(=O)=NC(=O)Nc3c4c(c(F)c5c3CCC5)CCC4)cnn2C1 (single isomer, unassigned) [Example 41]
Prompt: Which item exceeds the other in pIC50, a or b ? Mark your selection by writing its label.
Response: b
